biological target: T1, human PD-L1 (full-length, expressed on CHO cells) (human, UniProt Q9NZQ7 19-290); assay: flow cytometry, CHO cells expressing huPD-L1, PE anti-human Fc
T1 construct: also called huPD-L1; CD274
T1 sequence (Q9NZQ7 19-290): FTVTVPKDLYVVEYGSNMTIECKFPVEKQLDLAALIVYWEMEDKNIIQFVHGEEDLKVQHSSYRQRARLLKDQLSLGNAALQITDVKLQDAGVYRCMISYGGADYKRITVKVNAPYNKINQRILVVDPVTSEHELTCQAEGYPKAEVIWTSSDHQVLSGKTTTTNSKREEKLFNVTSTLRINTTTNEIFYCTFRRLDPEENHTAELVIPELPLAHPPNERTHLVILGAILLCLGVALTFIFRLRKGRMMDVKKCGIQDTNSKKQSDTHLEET
VALUE KIND: MFI at 33.3 nM (MFI)
Could you give me the number in MFI? Just the number is fine.

variant CD80 IgV-Fc E24D/Q33L/E35D/M47V/K54R/L85Q (Fc fusion, not shown: a dimerising Fc or GST) VIHVTKEVKEVATLSCGHNVSVEDLAQTRIYWLKDKKMVLTMMSGDVNIWPEYRNRTIFDITNNLSIVILALRPSDEGTYECVVQKYEKDAFKREHLAEVTLSVKAD	67100

Query :: Which MFI at 33.3 nM reading was recorded for the binder variant CD80 IgV-Fc Y31S/E35D/M47L/T79L/E88G (Fc fusion, not shown: a dimerising Fc or GST) VIHVTKEVKEVATLSCGHNVSVEELAQTRISWQKDKKMVLTMMSGDLNIWPEYKNRTIFDITNNLSIVILALRPSDEGLYECVVLKYGKDAFKREHLAEVTLSVKAD ?
Result :: 38900
